This collection of values is drawn from patent US20220002432A1.

binders and their reported kon
target: recombinant human CD38 (human, UniProt P28907 43-300, limits assumed); test: SPR (Biacore 8K), antibody captured, antigen injected;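 note: antibodies held on a CM5 chip through anti-human IgG Fc, antigen in 3-fold serial dilutions, 1 min association then 10 min dissociation at 25 °C, 1:1 Langmuir global fit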
Form entry: enter the amount, then its unit.

{"columns": ["binder", "metric", "recorded.measurement"],
 "data": [
  ["25E4 (antibody, human IgG1, kappa, V domains shown, Rabbit-human chimeric anti-CD38: rabbit VH and VL on human IgG1 and kappa constant regions) VH: QSLEESGGRLVTPGTPLTLTCTVSGIDLSIYTMAWVRQAPGKGLEYIGIISGYGTTYYATWAKGRFIVSKTSTTVDLKITSPTTEDTATYFCVRTTVQSTDLWGPGTLVTVSS VL: DIVMTQTPASVEAAVGGTVTINCQASQNIYSNLAWYQQKPGQRPKLLIYKASTLASGVSSRFKGSGSGTEFTLTISDLASADAATYYCQSYYGATSSSFGYGFGGGTEVVVKR", "kon", "380000 M⁻¹ s⁻¹"]
]}

Proceeding to the next binder to report its kon.
Ask: Can you look up the measured kon of 21G2 (antibody, human IgG1, kappa, V domains shown, Rabbit-human chimeric anti-CD38: rabbit VH and VL on human IgG1 and kappa constant regions) VH: QSVEESGGRLVTPGTPLTLTCTVSGFSLSNYGVSWVRQAPGKGLEWIGYILTSGGTYYANWAQGRFTISKTSTTVDLKITSPTTEDTATYFCGRPKDSDSSAFVSLWGPGTLVTVSS VL: DVVMTQTPASVSEPVGGTVTINCQASESIYSNLAWYQQKPGQPPKLLIYKASTLASGVSSRFKGSGSGTEFTLTISDLESADAATYYCQANHMIVIYGNGFGGGTEVVVKR for me?
Reply: 167000 M⁻¹ s⁻¹
